Values from the supplement of paper PMC8728848

# study system: Gal6S(b1-4)Glc6S
# test: glycan array binding signal (z-score within array); higher = stronger binding
# test settings: glycan notation: IUPAC condensed, linker removed
Shown is part of a subset that was picked to be rich in the strongest signals.
endpoint: glycan array binding signal (z-score)
Keep it simple and answer with nothing but the number.

Need glycan array binding signal (z-score), item PNGase F (Flavobacterium meningosepticum) (protein) GIPAPADNTVNIKTFDKVKNAFGDGLSQSAEGTFTFPADVTAVKTIKMFIKNECPNKTCDEWDRYANVYVKNKTTGEWYEIGRFITPYWVGTEKLPRGLEIDVTDFKSLLSGNTELKIYTETWLAKGREYSVDFDIVYGTPDYKYSAVVPVVQYNKSSIDGVPYGKAHTLALKKNIQLPTNTEKAYLRTTISGWGHAKPYDAGSRGCAEWCFRTHTIAINNSNTFQHQLGALGCSANPINNQSPGNWTPDRAGWCPGMAVPTRIDVLNNSLIGSTFSYEYKFQNWTNNGTNGDAFYAISSFVIAKSNTPISAPVVTNLDPHHHHHH
-0.41
